# methodNotes: Components of the Cytosolic LPS Sensing Pathway: Gene Identification via Genome-wide siRNA Screen;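 further: robust z of the log signal after scaling to non-targeting control siRNA wells of the plate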
# assayConditions: RAW264.7 macrophages, IL-1a HTRF, actives lie on both sides, screened at 100 nM (by protocol), cells primed 5 h with Pam3CSK4 first
The whole screen tested about 53,000 sequences, of which about 3,700 (7%) were called active. This excerpt belongs to a sample that is enriched for actives.
Label Criterion met when z-score is strictly below 0.7; otherwise label Criterion not met.

Take a look at these entries with their results.
GCUGCUAUGAGAGAGUUUUTT against Serpind1
Criterion not met
GGCCGUUUCACUACCAUUCTT against Ier2
Criterion met
GGCCGUGUUAAGGAAUCUGTT against Cidea
Criterion met

Q: Hello, is z-score of the following sequence strictly smaller than 0.7? GGAAUGUAACUGAAAGACUTT against Myo1c
A: Criterion met

Q: Hello, is z-score of the following sequence strictly smaller than 0.7? GGAAAAGGAAACCCAGAGCTT against Tdg
A: Criterion met

Q: Hello, is z-score of the following sequence strictly smaller than 0.7? GGAAACCAAAGAUAAACUCTT against Ccdc186
A: Criterion not met

Q: Hello, is z-score of the following sequence strictly smaller than 0.7? GGCUCCAAGGGAUUUGGUUTT against Rbfox1
A: Criterion not met

Q: Hello, is z-score of the following sequence strictly smaller than 0.7? GCGAACCCUAAGUAAGAAGTT against U2surp
A: Criterion met

Q: Hello, is z-score of the following sequence strictly smaller than 0.7? GGAGCAGUGCAUUGAGACCTT against Adcy6
A: Criterion not met

Q: Hello, is z-score of the following sequence strictly smaller than 0.7? GGCAAGGAAUCAAUGUCUCTT against Fscn2
A: Criterion met

Q: Hello, is z-score of the following sequence strictly smaller than 0.7? GGCUGCUUAUAAAAUUUUCTT against Mipep
A: Criterion met

Q: Hello, is z-score of the following sequence strictly smaller than 0.7? GCCUGCUAUUUAAUUCAUATT against Fam168a
A: Criterion met

----------
# methodNotes: Components of the Cytosolic LPS Sensing Pathway: Gene Identification via Genome-wide siRNA Screen;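 further: robust z of the log signal after scaling to non-targeting control siRNA wells of the plate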
# assayConditions: RAW264.7 macrophages, IL-1a HTRF, actives lie on both sides, screened at 100 nM (by protocol), cells primed 5 h with Pam3CSK4 first
Among all 53,000 sequences or so, about 3,700 (7%) were called active. The full list was thinned out, with actives kept by preference.
Answer each item with its documented z-score.
Give bare numbers.

Use the examples below as a reference point.
GGAUCAAGACAAAAAACUUTT against Arhgap17
-0.17
GGAAAGAAAGACUAGUAAATT against Cpne1
0.815

Please give z-score, item by item, for the list that follows.
1. GGUUUUUGUCCCAUCUUGGTT against Zc3h12d
2. GGACCAAAAUCUAGAAUACTT against Zfp629
3. GGAGUCUCCAAUGAAAUGUTT against Kcnma1
4. GGACAUCAUAUUCGUUUUCTT against C130026L21Rik
5. GCAGUUCACGCAGUGGAAGTT against Fam25c

A:
1. 0.228
2. -0.898
3. -0.464
4. 1.12
5. 1.3

Please give z-score, item by item, for the list that follows.
1. GCCAUGCUCACUGAACUUCTT against Nanp
2. GGUCUCAAGUUUUACAUUCTT against Prss35
3. CCAUCAGUUUCAUUAUUGGTT against Fpr-rs6
4. GGUCUAUGUACUGUCCUGATT against Otop2
5. GGUACUUGUACUAAUCGCUTT against Lpcat2
6. GGAAGCUGAAGGUUUGCCATT against Wipi2

A:
1. -2.3
2. 2.2
3. -0.605
4. 0.0413
5. 0.683
6. -0.529
